This collection of values is drawn from patent US12410171B2.

Target: TPM3-TRKA fusion protein (Homo sapiens, UniProt P04629)
Construct: The resulted chimeric proteins always retain the kinase domain of TRK proteins; TPM3 (fusion partner, N-terminal part of tropomyosin alpha-3, P06753); endogenous in cells; host or cells: KM12 colon cancer cells; the other entry of the earlier key: TPM3 (P06753, Tropomyosin alpha-3 chain)
Sequence (P04629 with tags, fused parts or gaps): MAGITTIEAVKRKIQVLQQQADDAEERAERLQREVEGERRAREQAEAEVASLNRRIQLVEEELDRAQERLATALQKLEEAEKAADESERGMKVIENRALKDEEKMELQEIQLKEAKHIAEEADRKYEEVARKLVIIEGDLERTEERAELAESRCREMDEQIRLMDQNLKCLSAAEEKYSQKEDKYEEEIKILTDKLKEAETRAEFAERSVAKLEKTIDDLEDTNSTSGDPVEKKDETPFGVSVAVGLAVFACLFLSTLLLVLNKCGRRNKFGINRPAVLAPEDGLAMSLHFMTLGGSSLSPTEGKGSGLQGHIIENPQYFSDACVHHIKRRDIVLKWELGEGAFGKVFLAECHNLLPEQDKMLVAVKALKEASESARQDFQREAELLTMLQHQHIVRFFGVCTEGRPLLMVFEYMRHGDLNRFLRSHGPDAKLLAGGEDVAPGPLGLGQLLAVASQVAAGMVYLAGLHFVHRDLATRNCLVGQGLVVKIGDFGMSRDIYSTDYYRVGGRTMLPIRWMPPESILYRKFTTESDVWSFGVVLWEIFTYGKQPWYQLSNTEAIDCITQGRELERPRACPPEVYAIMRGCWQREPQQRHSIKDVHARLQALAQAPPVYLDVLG
Test: TPM3-TRKA fusion protein levels in KM12 cells (Western blot)
Format: cell-based
Conditions: 16 h; TPM3-TRKA degradation in KM12 cells at 10 nM compound, category of percentage degradation; read-out: Degradation (at 10 nM)
recorded_endpoint: percent degradation of TPM3-TRKA protein at 0.01 µM

**Q:** Request: percent degradation of TPM3-TRKA protein at 0.01 µM, test system TPM3-TRKA fusion protein (Homo sapiens, UniProt P04629), entry Cc1nc2cccc(N3CC(CN4CCN(c5cccc(-c6cnc7ccc(N8CCC[C@@H]8c8cccc(F)c8)nn67)n5)CC4)C3)c2c(=O)n1C1CCC(=O)NC1=O (stereo partly shown)
**A:** 50 to 80%

**Q:** Request: percent degradation of TPM3-TRKA protein at 0.01 µM, test system TPM3-TRKA fusion protein (Homo sapiens, UniProt P04629), entry `Cc1ncsc1-c1ccc(CNC(=O)[C@@H]2C[C@@H](O)CN2C(=O)[C@@H](NC(=O)CCC(=O)N2CCN(c3ccc(C(=O)Nc4n[nH]c5ccc(Cc6cc(F)cc(F)c6)cc45)c(NC4CCOCC4)c3)CC2)C(C)(C)C)cc1`
**A:** 50 to 80%

**Q:** Request: percent degradation of TPM3-TRKA protein at 0.01 µM, test system TPM3-TRKA fusion protein (Homo sapiens, UniProt P04629), entry O=C(CN1CCN(c2ccc(C(=O)Nc3n[nH]c4ccc(Cc5cc(F)cc(F)c5)cc34)c(NC3CCOCC3)c2)CC1)NCCCCNc1ccc2c(c1)C(=O)N(C1CCC(=O)NC1=O)C2=O (stereo not shown)
**A:** > 80%

**Q:** Request: percent degradation of TPM3-TRKA protein at 0.01 µM, test system TPM3-TRKA fusion protein (Homo sapiens, UniProt P04629), entry O=C1CCC(N2C(=O)c3cccc(NCCOCCOCCOCCOCCC(=O)N4CCN(c5ccc(C(=O)Nc6n[nH]c7ccc(Cc8cc(F)cc(F)c8)cc67)c(NC6CCOCC6)c5)CC4)c3C2=O)C(=O)N1 (stereo not shown)
**A:** > 80%

**Q:** Request: percent degradation of TPM3-TRKA protein at 0.01 µM, test system TPM3-TRKA fusion protein (Homo sapiens, UniProt P04629), entry O=C1CCC(N2C(=O)c3ccc(NCC(=O)N4CCN(c5ccc(C(=O)Nc6n[nH]c7ccc(Cc8cc(F)cc(F)c8)cc67)cc5)CC4)cc3C2=O)C(=O)N1 (stereo not shown)
**A:** > 80%

New cases:
**Q:** Request: percent degradation of TPM3-TRKA protein at 0.01 µM, test system TPM3-TRKA fusion protein (Homo sapiens, UniProt P04629), entry O=C(CN1CCN(c2ccc(C(=O)Nc3n[nH]c4ccc(Cc5cc(F)cc(F)c5)cc34)c(NC3CCOCC3)c2)CC1)NCCOCCNc1ccc2c(c1)C(=O)N(C1CCC(=O)NC1=O)C2=O (stereo not shown)
**A:** > 80%

**Q:** Request: percent degradation of TPM3-TRKA protein at 0.01 µM, test system TPM3-TRKA fusion protein (Homo sapiens, UniProt P04629), entry O=C1CCC(N2C(=O)c3ccc(NC4CCC(N5CCN(c6ccc(C(=O)Nc7n[nH]c8ccc(Cc9cc(F)cc(F)c9)cc78)c(NC7CCOCC7)c6)CC5)C4)cc3C2=O)C(=O)N1 (stereo not shown)
**A:** > 80%

**Q:** Request: percent degradation of TPM3-TRKA protein at 0.01 µM, test system TPM3-TRKA fusion protein (Homo sapiens, UniProt P04629), entry `Cc1ncsc1-c1ccc(CNC(=O)[C@@H]2C[C@@H](O)CN2C(=O)[C@@H](NC(=O)COCCOCCOCC(=O)N2CCN(c3ccc(C(=O)Nc4n[nH]c5ccc(Cc6cc(F)cc(F)c6)cc45)c(NC4CCOCC4)c3)CC2)C(C)(C)C)cc1`
**A:** < 50%

**Q:** Request: percent degradation of TPM3-TRKA protein at 0.01 µM, test system TPM3-TRKA fusion protein (Homo sapiens, UniProt P04629), entry O=C1CCC(N2C(=O)Cc3c(NCCN4CCN(c5cccc(-c6cnc7ccc(N8CCC[C@@H]8c8cccc(F)c8)nn67)n5)CC4)cccc32)C(=O)N1 (stereo partly shown)
**A:** < 50%

**Q:** Request: percent degradation of TPM3-TRKA protein at 0.01 µM, test system TPM3-TRKA fusion protein (Homo sapiens, UniProt P04629), entry O=C1CCC(N2C(=O)c3ccc(NCC(=O)N4CCN(c5ccc(C(=O)Nc6n[nH]c7ccc(Cc8cc(F)cc(F)c8)cc67)c(NC6CCOCC6)c5)CC4)cc3C2=O)C(=O)N1 (stereo not shown)
**A:** > 80%
